# study system: Msi3 (Candida albicans, UniProt Q96VB9)
# Sequence (Q96VB9 whole entry): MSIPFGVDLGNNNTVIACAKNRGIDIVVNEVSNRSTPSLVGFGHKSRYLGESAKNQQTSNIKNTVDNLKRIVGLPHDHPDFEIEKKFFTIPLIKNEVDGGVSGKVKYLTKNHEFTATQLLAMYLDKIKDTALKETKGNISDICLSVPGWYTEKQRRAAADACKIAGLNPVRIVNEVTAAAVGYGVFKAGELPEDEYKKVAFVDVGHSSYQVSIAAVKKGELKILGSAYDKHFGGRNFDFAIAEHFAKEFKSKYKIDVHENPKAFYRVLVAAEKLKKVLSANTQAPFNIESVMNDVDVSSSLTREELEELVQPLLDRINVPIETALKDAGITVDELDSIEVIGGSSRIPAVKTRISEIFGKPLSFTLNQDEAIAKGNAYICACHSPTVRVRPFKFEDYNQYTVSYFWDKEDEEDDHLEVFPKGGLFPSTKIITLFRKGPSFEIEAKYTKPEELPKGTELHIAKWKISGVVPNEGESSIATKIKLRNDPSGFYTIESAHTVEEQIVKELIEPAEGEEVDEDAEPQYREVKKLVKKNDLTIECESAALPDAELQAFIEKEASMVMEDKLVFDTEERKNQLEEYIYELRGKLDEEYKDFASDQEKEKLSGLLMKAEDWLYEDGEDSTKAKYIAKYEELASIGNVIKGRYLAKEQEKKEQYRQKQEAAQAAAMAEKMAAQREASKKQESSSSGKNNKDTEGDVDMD
endpoint label: IC50 (µM)
All answers are understood in µM, so give the number only.

Incoming: Entry Cc1cccc(COc2nc3c(cc2-c2nc(N)cc(N)n2)c(C)nn3-c2ccccc2)c1 [2H, HLQ2H] , system Msi3 (Candida albicans, UniProt Q96VB9): what IC50 was measured?
Outgoing: 5.02
